Task for the reader: assign each of the following compounds its reported activity at 10 µM.
Tested on: HCT-116
EXPERIMENTAL_PROTOCOL: NCI-60 screening, one-dose (10 µM) and five-dose, SRB
Assay type: cell-based, human
RUN_CONDITIONS: Homo sapiens, HCT-116, 10 μM; HCT-116, Colon Cancer; read-out: Growth percentage
// note: answer is a bare numeric in %

Kindly state the measured activity at 10 µM obtained for Cc1nc(SCC(=O)N2CCN(c3cc4c(cc3F)c(=O)c(C(=O)O)cn4C3CC3)CC2)sc1C(=O)/C=C/c1ccc(Br)cc1 [Compound 4f] with HCT-116. 94.3

Kindly state the measured activity at 10 µM obtained for Cc1nc(SCC(=O)N2CCN(c3cc4c(cc3F)c(=O)c(C(=O)O)cn4C3CC3)CC2)sc1C(=O)/C=C/c1ccc(Cl)cc1 [Compound 4c] with HCT-116. 61

Kindly state the measured activity at 10 µM obtained for CC(=O)c1sc(SCC(=O)N2CCN(c3cc4c(cc3F)c(=O)c(C(=O)O)cn4C3CC3)CC2)nc1C [Compound 4a] with HCT-116. 113

###

System: NCI-H522
EXPERIMENTAL_PROTOCOL: NCI-60 screening, one-dose (10 µM) and five-dose, SRB
Format: cell-based, human
RUN_CONDITIONS: Homo sapiens; 10 μM; NCI-H522, Non-Small-Cell Lung Cancer; read-out: Growth percentage
Task for the reader: assign each of the following compounds its reported activity at 10 µM.
// note: answer is a bare numeric in %

Return reported activity at 10 µM; argument: Cc1nc(SCC(=O)N2CCN(c3cc4c(cc3F)c(=O)c(C(=O)O)cn4C3CC3)CC2)sc1C(=O)/C=C/c1ccc(Cl)cc1 [Compound 4c] 95.9

Return reported activity at 10 µM; argument: Cc1nc(SCC(=O)N2CCN(c3cc4c(cc3F)c(=O)c(C(=O)O)cn4C3CC3)CC2)sc1C(=O)/C=C/c1cccc(F)c1 [Compound 4d] 88.2

Return reported activity at 10 µM; argument: COc1ccc(/C=C/C(=O)c2sc(SCC(=O)N3CCN(c4cc5c(cc4F)c(=O)c(C(=O)O)cn5C4CC4)CC3)nc2C)cc1 [Compound 4j] 99

Return reported activity at 10 µM; argument: Cc1nc(SCC(=O)N2CCN(c3cc4c(cc3F)c(=O)c(C(=O)O)cn4C3CC3)CC2)sc1C(=O)/C=C/c1ccc(F)cc1 [Compound 4e] 98.2

Return reported activity at 10 µM; argument: Cc1nc(SCC(=O)N2CCN(c3cc4c(cc3F)c(=O)c(C(=O)O)cn4C3CC3)CC2)sc1C(=O)/C=C/c1ccc(N(C)C)cc1 [Compound 4i] 78.5

Return reported activity at 10 µM; argument: Cc1nc(SCC(=O)N2CCN(c3cc4c(cc3F)c(=O)c(C(=O)O)cn4C3CC3)CC2)sc1C(=O)/C=C/c1cccc(Cl)c1 [Compound 4b] 98.5

Return reported activity at 10 µM; argument: Cc1nc(SCC(=O)N2CCN(c3cc4c(cc3F)c(=O)c(C(=O)O)cn4C3CC3)CC2)sc1C(=O)/C=C/c1ccc(Br)cc1 [Compound 4f] 105

Return reported activity at 10 µM; argument: COc1cccc(/C=C/C(=O)c2sc(SCC(=O)N3CCN(c4cc5c(cc4F)c(=O)c(C(=O)O)cn5C4CC4)CC3)nc2C)c1OC [Compound 4k] 104

Return reported activity at 10 µM; argument: Cc1nc(SCC(=O)N2CCN(c3cc4c(cc3F)c(=O)c(C(=O)O)cn4C3CC3)CC2)sc1C(=O)/C=C/c1ccc([N+](=O)[O-])cc1 [Compound 4h] 27.9

Return reported activity at 10 µM; argument: Cc1nc(SCC(=O)N2CCN(c3cc4c(cc3F)c(=O)c(C(=O)O)cn4C3CC3)CC2)sc1C(=O)/C=C/c1cccc([N+](=O)[O-])c1 [Compound 4g] 72.3

Return reported activity at 10 µM; argument: CC(=O)c1sc(SCC(=O)N2CCN(c3cc4c(cc3F)c(=O)c(C(=O)O)cn4C3CC3)CC2)nc1C [Compound 4a] 98.9

###

System: PC-3
EXPERIMENTAL_PROTOCOL: NCI-60 screening, one-dose (10 µM) and five-dose, SRB
Type: cell-based, human
RUN_CONDITIONS: Homo sapiens; 10 μM; PC-3, Prostate Cancer; read-out: Growth percentage
QUANTITY: activity at 10 µM (%)
// note: answer is a bare numeric in %

Return reported activity at 10 µM; argument: `COc1ccc(/C=C/C(=O)c2sc(SCC(=O)N3CCN(c4cc5c(cc4F)c(=O)c(C(=O)O)cn5C4CC4)CC3)nc2C)cc1` 107

Return reported activity at 10 µM; argument: `Cc1nc(SCC(=O)N2CCN(c3cc4c(cc3F)c(=O)c(C(=O)O)cn4C3CC3)CC2)sc1C(=O)/C=C/c1ccc(N(C)C)cc1` 96.7

Return reported activity at 10 µM; argument: `Cc1nc(SCC(=O)N2CCN(c3cc4c(cc3F)c(=O)c(C(=O)O)cn4C3CC3)CC2)sc1C(=O)/C=C/c1cccc(F)c1` 53.4

Return reported activity at 10 µM; argument: `Cc1nc(SCC(=O)N2CCN(c3cc4c(cc3F)c(=O)c(C(=O)O)cn4C3CC3)CC2)sc1C(=O)/C=C/c1cccc([N+](=O)[O-])c1` 112

Return reported activity at 10 µM; argument: `COc1cccc(/C=C/C(=O)c2sc(SCC(=O)N3CCN(c4cc5c(cc4F)c(=O)c(C(=O)O)cn5C4CC4)CC3)nc2C)c1OC` 93.5

###

Tested on: NCI-H23
EXPERIMENTAL_PROTOCOL: NCI-60 screening, one-dose (10 µM) and five-dose, SRB
Assay type: cell-based, human
RUN_CONDITIONS: Homo sapiens; 10 μM; NCI-H23, Non-Small-Cell Lung Cancer; read-out: Growth percentage
Task for the reader: assign each of the following compounds its reported activity at 10 µM.
// note: answer is a bare numeric in %

Return reported activity at 10 µM; argument: `COc1cccc(/C=C/C(=O)c2sc(SCC(=O)N3CCN(c4cc5c(cc4F)c(=O)c(C(=O)O)cn5C4CC4)CC3)nc2C)c1OC` 87.9

Return reported activity at 10 µM; argument: `Cc1nc(SCC(=O)N2CCN(c3cc4c(cc3F)c(=O)c(C(=O)O)cn4C3CC3)CC2)sc1C(=O)/C=C/c1ccc(F)cc1` 101

Return reported activity at 10 µM; argument: `COc1ccc(/C=C/C(=O)c2sc(SCC(=O)N3CCN(c4cc5c(cc4F)c(=O)c(C(=O)O)cn5C4CC4)CC3)nc2C)cc1` 102

Return reported activity at 10 µM; argument: `Cc1nc(SCC(=O)N2CCN(c3cc4c(cc3F)c(=O)c(C(=O)O)cn4C3CC3)CC2)sc1C(=O)/C=C/c1ccc(Cl)cc1` 96.5

Return reported activity at 10 µM; argument: `Cc1nc(SCC(=O)N2CCN(c3cc4c(cc3F)c(=O)c(C(=O)O)cn4C3CC3)CC2)sc1C(=O)/C=C/c1cccc(Cl)c1` 54

Return reported activity at 10 µM; argument: `Cc1nc(SCC(=O)N2CCN(c3cc4c(cc3F)c(=O)c(C(=O)O)cn4C3CC3)CC2)sc1C(=O)/C=C/c1cccc([N+](=O)[O-])c1` 87.8

###

System: SK-OV-3
EXPERIMENTAL_PROTOCOL: NCI-60 screening, one-dose (10 µM) and five-dose, SRB
Type: cell-based, human
RUN_CONDITIONS: Homo sapiens; 10 μM; SK-OV-3, Ovarian Cancer; read-out: Growth percentage
Task for the reader: assign each of the following compounds its reported activity at 10 µM.
// note: answer is a bare numeric in %

Return reported activity at 10 µM; argument: COc1ccc(/C=C/C(=O)c2sc(SCC(=O)N3CCN(c4cc5c(cc4F)c(=O)c(C(=O)O)cn5C4CC4)CC3)nc2C)cc1 [Compound 4j] 115

Return reported activity at 10 µM; argument: Cc1nc(SCC(=O)N2CCN(c3cc4c(cc3F)c(=O)c(C(=O)O)cn4C3CC3)CC2)sc1C(=O)/C=C/c1cccc(Cl)c1 [Compound 4b] 46.3

Return reported activity at 10 µM; argument: Cc1nc(SCC(=O)N2CCN(c3cc4c(cc3F)c(=O)c(C(=O)O)cn4C3CC3)CC2)sc1C(=O)/C=C/c1ccc(N(C)C)cc1 [Compound 4i] 119

Return reported activity at 10 µM; argument: Cc1nc(SCC(=O)N2CCN(c3cc4c(cc3F)c(=O)c(C(=O)O)cn4C3CC3)CC2)sc1C(=O)/C=C/c1ccc(F)cc1 [Compound 4e] 114

Return reported activity at 10 µM; argument: Cc1nc(SCC(=O)N2CCN(c3cc4c(cc3F)c(=O)c(C(=O)O)cn4C3CC3)CC2)sc1C(=O)/C=C/c1ccc([N+](=O)[O-])cc1 [Compound 4h] 119

Return reported activity at 10 µM; argument: COc1cccc(/C=C/C(=O)c2sc(SCC(=O)N3CCN(c4cc5c(cc4F)c(=O)c(C(=O)O)cn5C4CC4)CC3)nc2C)c1OC [Compound 4k] 76.7

Return reported activity at 10 µM; argument: Cc1nc(SCC(=O)N2CCN(c3cc4c(cc3F)c(=O)c(C(=O)O)cn4C3CC3)CC2)sc1C(=O)/C=C/c1cccc([N+](=O)[O-])c1 [Compound 4g] 121

Return reported activity at 10 µM; argument: CC(=O)c1sc(SCC(=O)N2CCN(c3cc4c(cc3F)c(=O)c(C(=O)O)cn4C3CC3)CC2)nc1C [Compound 4a] 101

Return reported activity at 10 µM; argument: Cc1nc(SCC(=O)N2CCN(c3cc4c(cc3F)c(=O)c(C(=O)O)cn4C3CC3)CC2)sc1C(=O)/C=C/c1ccc(Br)cc1 [Compound 4f] 110

Return reported activity at 10 µM; argument: Cc1nc(SCC(=O)N2CCN(c3cc4c(cc3F)c(=O)c(C(=O)O)cn4C3CC3)CC2)sc1C(=O)/C=C/c1cccc(F)c1 [Compound 4d] 5

Return reported activity at 10 µM; argument: Cc1nc(SCC(=O)N2CCN(c3cc4c(cc3F)c(=O)c(C(=O)O)cn4C3CC3)CC2)sc1C(=O)/C=C/c1ccc(Cl)cc1 [Compound 4c] 129
